- target-of-assay: T1, soluble human RGMa (human, UniProt Q96B86 48-422, limits assumed)
- T1 construct: Soluble antigen in BIAcore; also called huRGMa; repulsive guidance molecule A
- T1 sequence (looked up): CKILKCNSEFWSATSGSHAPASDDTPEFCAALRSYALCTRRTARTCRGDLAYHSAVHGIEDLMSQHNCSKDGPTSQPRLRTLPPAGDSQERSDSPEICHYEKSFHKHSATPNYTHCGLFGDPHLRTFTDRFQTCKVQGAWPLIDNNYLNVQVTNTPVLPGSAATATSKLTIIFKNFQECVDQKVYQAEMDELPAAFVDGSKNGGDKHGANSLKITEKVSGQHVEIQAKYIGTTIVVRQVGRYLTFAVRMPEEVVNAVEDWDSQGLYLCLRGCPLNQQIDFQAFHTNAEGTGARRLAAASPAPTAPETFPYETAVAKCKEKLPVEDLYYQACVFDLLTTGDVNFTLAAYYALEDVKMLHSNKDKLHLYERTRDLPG
- experiment-summary: SPR (BIAcore);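 note: Anti-HJV antibodies tested for binding against soluble human RGMa by surface plasmon resonance on a BIAcore instrument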
The following binders are shown together with reported koff values.
reported-metric: koff

binder	result
hHA-003 (antibody, human IgG1, kappa, L234A L235A, V domains shown, hIgG1 L234A, L235A, kappa) VH: EVQLVESGGGLVQPGGSLRLSCAASGFTFSNYGMNWIRQAPGKGLEWIGMIYYDSSEKHYADSVKGRFTISRDNSKNTLYLQMNSLRAEDTAVYYCAKGTTPDYWGQGTMVTVSS VL: DVVLTQSPLSLPVTLGQPASISCRSSQSLETSDGDTFLEWFQQRPGQSPRLLIYEVSNRFSGVPDRFSGSGSGTDFTLKISRVEAEDVGVYYCFQVTHDPVTFGQGTKLEIKR	0.00014 s⁻¹
hHA-009 (antibody, human IgG1, kappa, L234A L235A, V domains shown, hIgG1 L234A, L235A, kappa) VH: EVQLVESGGGLVQPGGSLRLSCAASGFTFSNYGMNWVRQAPGKGLEWIGMIYYDSSEKHYADSVKGRFTISRDNSKNTLYLQMNSLRAEDTAVYYCAKGTTPDYWGQGTMVTVSS VL: DVVLTQSPLSLPVTLGQPASISCRSSQSLADSDGDTFLHWFQQRPGQSPRLLIYAVSHRFSGVPDRFSGSGSGTDFTLKISRVEAEDVGVYYCFQATHDPVTFGQGTKLEIKR	0.0004 s⁻¹
hHA-001 (antibody, human IgG1, kappa, L234A L235A, V domains shown, hIgG1 constant region with L234A, L235A, kappa) VH: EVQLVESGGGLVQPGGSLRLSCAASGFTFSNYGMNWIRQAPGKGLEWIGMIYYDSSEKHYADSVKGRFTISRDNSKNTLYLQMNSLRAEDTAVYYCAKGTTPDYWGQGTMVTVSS VL: DVVLTQSPLSLPVTLGQPASISCRSSQSLETSDGDTFLEWFQQRPGQSPRLLIYEVSTRFSGVPDRFSGSGSGTDFTLKISRVEAEDVGVYYCFQVTHDPMTFGQGTKLEIKR	6.7e-05 s⁻¹
hHA-002 (antibody, human IgG1, kappa, L234A L235A, V domains shown, hIgG1 L234A, L235A, kappa) VH: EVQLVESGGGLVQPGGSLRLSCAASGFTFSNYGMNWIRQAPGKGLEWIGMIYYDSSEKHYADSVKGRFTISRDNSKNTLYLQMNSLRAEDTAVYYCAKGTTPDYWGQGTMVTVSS VL: DVVLTQSPLSLPVTLGQPASISCRSSQSLETSDGDTFLEWFQQRPGQSPRLLIYEVSSRFSGVPDRFSGSGSGTDFTLKISRVEAEDVGVYYCMQVTHDPLTFGQGTKLEIKR	5e-05 s⁻¹
hHA-011 (antibody, human IgG1, kappa, L234A L235A, V domains shown, hIgG1 L234A, L235A, kappa) VH: EVQLVESGGGLVQPGGSLRLSCAASGFTFSNYGMNWVRQAPGKGLEWIGMIYYDSSEKHYADSVKGRFTISRDNSKNTLYLQMNSLRAEDTAVYYCAKGSTPDYWGQGTMVTVSS VL: DVVLTQSPLSLPVTLGQPASISCRSSQSLEDSDGGTFLEWFQQRPGQSPRLLIYDVSSRFSGVPDRFSGSGSGTDFTLKISRVEAEDVGVYYCFQATHDPLSFGQGTKLEIKR	9.9e-05 s⁻¹
hHA-005 (antibody, human IgG1, kappa, L234A L235A, V domains shown, hIgG1 L234A, L235A, kappa) VH: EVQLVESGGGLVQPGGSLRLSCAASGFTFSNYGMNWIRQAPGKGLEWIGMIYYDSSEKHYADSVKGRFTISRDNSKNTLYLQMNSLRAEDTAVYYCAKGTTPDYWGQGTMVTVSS VL: DVVLTQSPLSLPVTLGQPASISCRSSQSLEESDGYTFLEWFQQRPGQSPRLLIYDVSERFSGVPDRFSGSGSGTDFTLKISRVEAEDVGVYYCFQATYDPLTFGQGTKLEIKR	0.00025 s⁻¹
